Target: ATP-dependent translocase ABCB1 (Mus musculus)
Sequence (P06795 whole entry): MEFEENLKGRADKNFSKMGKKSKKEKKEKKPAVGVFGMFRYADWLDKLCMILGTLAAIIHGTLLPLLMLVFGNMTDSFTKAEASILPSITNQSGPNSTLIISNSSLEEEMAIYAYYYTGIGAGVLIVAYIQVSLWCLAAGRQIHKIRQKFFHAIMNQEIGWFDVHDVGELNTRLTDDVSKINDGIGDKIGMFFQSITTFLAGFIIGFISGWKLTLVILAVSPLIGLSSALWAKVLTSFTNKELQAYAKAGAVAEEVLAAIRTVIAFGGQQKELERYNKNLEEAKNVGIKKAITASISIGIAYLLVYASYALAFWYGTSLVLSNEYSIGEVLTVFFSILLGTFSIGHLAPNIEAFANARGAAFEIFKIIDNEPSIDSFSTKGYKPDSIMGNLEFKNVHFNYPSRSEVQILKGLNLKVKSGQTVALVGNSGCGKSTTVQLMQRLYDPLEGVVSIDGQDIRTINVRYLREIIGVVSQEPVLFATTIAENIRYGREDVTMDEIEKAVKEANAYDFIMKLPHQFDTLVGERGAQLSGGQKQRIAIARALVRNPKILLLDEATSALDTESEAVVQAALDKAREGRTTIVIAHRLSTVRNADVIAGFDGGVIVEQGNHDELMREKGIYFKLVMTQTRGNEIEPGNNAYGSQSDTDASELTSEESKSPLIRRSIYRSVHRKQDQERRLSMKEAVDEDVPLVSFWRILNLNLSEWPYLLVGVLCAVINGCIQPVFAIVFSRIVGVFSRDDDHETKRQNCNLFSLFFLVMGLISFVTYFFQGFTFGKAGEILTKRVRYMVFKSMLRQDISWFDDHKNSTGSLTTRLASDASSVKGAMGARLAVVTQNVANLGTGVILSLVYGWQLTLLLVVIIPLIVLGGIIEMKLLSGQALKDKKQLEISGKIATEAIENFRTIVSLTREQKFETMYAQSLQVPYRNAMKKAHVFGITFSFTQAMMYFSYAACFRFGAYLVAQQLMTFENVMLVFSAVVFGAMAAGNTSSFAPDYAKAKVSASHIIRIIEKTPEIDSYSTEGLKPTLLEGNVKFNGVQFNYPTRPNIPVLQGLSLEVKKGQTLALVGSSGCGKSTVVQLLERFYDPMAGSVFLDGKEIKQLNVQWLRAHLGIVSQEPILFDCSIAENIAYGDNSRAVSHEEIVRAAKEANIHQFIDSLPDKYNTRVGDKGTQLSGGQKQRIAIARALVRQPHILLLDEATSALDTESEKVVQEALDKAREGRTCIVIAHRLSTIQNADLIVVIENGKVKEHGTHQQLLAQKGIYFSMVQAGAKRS
Test: Inhibition of P-glycoprotein in MDR mouse T lymphoma cells using rhodamine 123 assessed as ratio of fluorescent uptake relative to untreated control at 1 uM in MDR reversal assay by flow cytometry
Format: cell-based
Activity by entry:
measured parameter: Activity

# compound, measured parameter, measured result
measured = [
    ("COc1ccccc1C1C=CN(C(=O)Oc2ccccc2)C=C1C(C)=O (stereo unspecified)", "Activity", 1.01),
    ("CCOC(=O)C1=CN(C(=O)Oc2ccccc2)C=CC1c1ccccc1OC (stereo unspecified)", "Activity", 1.6),
    ("CC(=O)C1=CN(C(=O)Oc2ccccc2)C=CC1c1ccc(C)cc1 (stereo unspecified)", "Activity", 1.41),
    ("CCOC(=O)C1=CN(C(=O)Oc2ccccc2)C=CC1c1ccc(OC)cc1 (stereo unspecified)", "Activity", 1.3),
    ("CCOC(=O)C1=CN(C(=O)Oc2ccccc2)C=CC1c1ccc(C)cc1 (stereo unspecified)", "Activity", 1.04),
    ("COc1ccc(C2C=CN(C(=O)Oc3ccccc3)C=C2C(C)=O)cc1 (stereo unspecified)", "Activity", 1.81),
]
